The reported numbers originate from patent US9113629B2.

Can you tell me pest or weed control at 140 g/ha for the items I'm about to list?
# System: Key Broadleaf Weed and Crop Species
# Protocol: Post-emergent Test II herbicidal activity (Table 5)
# Format: in vivo
# Test Context: post-emergence, 336 h; EPHHL: wild poinsettia (Euphorbia heterophylla); application rate 140 g ai/ha; 14 days after application; read-out: Visual Growth Reduction (%) 14 Days After Application, EPHHL

COC(=O)c1nc(-c2ccccc2)c(F)c(N)c1Cl :: 95 to 100%
Nc1c(F)c(-c2ccc(Br)c(F)c2F)nc(C(=O)O)c1Cl :: 95 to 100%
COC(=O)c1nc(-c2ccc(OC(F)F)c(F)c2)c(F)c(N)c1Cl :: 95 to 100%
COC(=O)c1nc(-c2ccc(C#N)c(F)c2F)c(F)c(N)c1Cl :: 60 to 74%

As a next step, examine the compound that follows.
*Q* Find the measured pest or weed control at 140 g/ha: item COC(=O)c1nc(-c2ccc(Br)cc2F)nc(N)c1OC , target or system Key Broadleaf Weed and Crop Species.
*A* 95 to 100%
